Target: ABHD6 (Mus musculus)
Construct: Proteomes (mouse brain membrane fraction or cell lysates); from tissue; host or cells: mouse brain membrane fraction (or cell lysates, not specified)
Sequence (Q8R2Y0 whole entry): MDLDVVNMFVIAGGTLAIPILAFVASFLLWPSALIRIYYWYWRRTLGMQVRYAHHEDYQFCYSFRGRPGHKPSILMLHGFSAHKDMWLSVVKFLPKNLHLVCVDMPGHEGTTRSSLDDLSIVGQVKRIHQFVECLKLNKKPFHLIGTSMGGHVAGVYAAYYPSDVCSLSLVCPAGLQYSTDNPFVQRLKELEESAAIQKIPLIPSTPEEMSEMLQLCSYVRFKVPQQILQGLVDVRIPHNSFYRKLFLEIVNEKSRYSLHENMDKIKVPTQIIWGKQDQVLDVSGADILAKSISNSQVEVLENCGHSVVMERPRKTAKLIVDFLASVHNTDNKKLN
Assay: In vitro competitive activity-based protein profiling (gel-based, FP-Rh or HT-01 probe)
Type: biochemical
Conditions: 10 μM inhibitor; read-out: % Inhibition at 10 μM, C = ABHD6
Listed here are molecules together with their documented inhibition at 10 µM.

Worked set:
O=C(N1CCN(Cc2ccc(-c3ccccc3)cc2Cl)CC1)n1cc(Cl)cn1 [Example 139] | > 75%
O=C(c1cnn(C(=O)N2CCN(Cc3ccncn3)CC2)c1)N1CCC1 [Example 90] | > 75%
CCN(Cc1ccc(OC)cc1)C(=O)n1cc(Cl)cn1 [Example 129] | 25 to 75%
N#Cc1cnn(C(=O)N2CCN(C(=O)c3ccccc3)CC2)c1 [Example 176] | > 75%
CCN(Cc1cccc(C)c1)C(=O)n1cc(Cl)cn1 [Example 135] | > 75%

Sample O=C(c1cnn(C(=O)N2CCN(Cc3ccccn3)CC2)c1)N1CCC1 [Example 89] ; inhibition at 10 µM observed: 25 to 75%

Sample O=C(N1CCN(Cc2ccccn2)CC1)n1cc(-c2ccccc2)cn1 [Example 61] ; inhibition at 10 µM observed: > 75%

Sample N#Cc1cnn(C(=O)N2CCCN(Cc3ccccc3)CC2)c1 [Example 179] ; inhibition at 10 µM observed: > 75%

Sample O=C(c1cnn(C(=O)N2CCN(Cc3ccncc3)CC2)c1)N1CCCC1 [Example 79] ; inhibition at 10 µM observed: > 75%

Sample N#Cc1cnn(C(=O)N2CCCC2)c1 [Example 203] ; inhibition at 10 µM observed: > 75%

Sample O=C(c1cnn(C(=O)N2CCN(Cc3nccs3)CC2)c1)N1CCC1 [Example 91] ; inhibition at 10 µM observed: > 75%

Sample N#Cc1cnn(C(=O)NCCCc2ccccc2)c1 [Example 33] ; inhibition at 10 µM observed: < 25%

Sample CN(Cc1cccc(-c2ccncc2)c1)C(=O)n1cc(Cl)cn1 [Example 220] ; inhibition at 10 µM observed: > 75%

Sample CN(CCN(C)S(C)(=O)=O)C(=O)n1cc(C(F)(F)F)cn1 [Example 195] ; inhibition at 10 µM observed: > 75%

Sample O=C(N1CCN(Cc2ccc(-c3ccccc3)cc2)CC1)n1cccn1 [Example 22] ; inhibition at 10 µM observed: > 75%

Sample CN(Cc1cccc(-c2ccncc2)c1)C(=O)n1cc(-c2ccccc2)cn1 [Example 219] ; inhibition at 10 µM observed: > 75%

Sample O=C(c1cnn(C(=O)N2CCN(Cc3ccccn3)CC2)c1)N1CCCC1 [Example 81] ; inhibition at 10 µM observed: > 75%

Sample O=C(N1CCN(c2ccc(N3CCCC3)cc2)CC1)n1cc(C(F)(F)F)cn1 [Example 241] ; inhibition at 10 µM observed: > 75%

meta.source: patent US10093630B2
